tested on: NCI/ADR-RES; test: Growth inhibition of human NCI/ADR-RES cells assessed as cell growth at 1 uM incubated for 48 hrs by sulforhodamine B assay relative to control; type: functional; settings: read-out: Activity
Can you tell me growth at 1 µM for the items I'm about to list?
One number for each entry, in %.

// input: 3 compounds below; output: growth at 1 µM for each
1. CCc1ccccc1NC(=O)c1sc2nc3c(cc2c1N)C(=O)CCC3
2. Cc1cccc(NC(=O)c2sc3nc4c(cc3c2N)C(=O)CCC4)c1
3. COc1cccc(NC(=O)c2sc3nc4c(cc3c2N)CN(Cc2ccccc2)CC4)c1

[21, 15, 63]

Go through the items and report each one's growth at 1 µM.
1. CN1CCc2nc3sc(C(N)=O)c(N)c3c(-c3cccs3)c2C1
2. Cc1ccc(NC(=O)c2sc3nc4c(cc3c2N)C(=O)CCC4)cc1C
3. Nc1c(C(=O)Nc2ccccc2)sc2nc3c(cc12)CN(Cc1ccccc1)CC3
4. Cc1cc(C)c(NC(=O)c2sc3nc4c(cc3c2N)CN(Cc2ccccc2)CC4)c(C)c1
5. CCc1cccc(C)c1NC(=O)c1sc2nc3c(cc2c1N)C(=O)CCC3

1: 91; 2: 39; 3: 98; 4: 69; 5: 33
